Catalogue of pIC50 readings, one per entry.
target-or-test-system: GABA-A receptor; anion channel
measurement-description: Displacement of [3H]muscimol from GABA-A receptor in Sprague-Dawley rat spinal cord
Format: protein-complex assay
pIC50: −log10 of the molar value.
recorded-metric: pIC50

>>> quantitative_readout("COc1c(NC2OC[C@@H](O)[C@H](O)[C@@H]2O)cc2c(c1OC)-c1ccc(SC)c(=O)cc1[C@@H](NC(C)=O)CC2 (stereo partly specified)")
5.40
>>> quantitative_readout("COc1c(N[C@H]2O[C@@H](C)[C@H](O)[C@@H](O)[C@H]2O)cc2c(c1OC)-c1ccc(SC)c(=O)cc1[C@@H](NC(C)=O)CC2")
5.42
>>> quantitative_readout("COc1c(NC2OC[C@@H](O)[C@H](O)[C@H]2O)cc2c(c1OC)-c1ccc(SC)c(=O)cc1[C@@H](NC(C)=O)CC2 (stereo partly specified)")
5.48
>>> quantitative_readout("COc1c(NC2O[C@H](CO)[C@@H](O)[C@H](O)[C@H]2O)cc2c(c1OC)-c1ccc(SC)c(=O)cc1[C@@H](NC(C)=O)CC2 (stereo partly specified)")
4.95
>>> quantitative_readout("COc1c(N[C@@H]2O[C@@H](C)[C@@H](O)[C@@H](O)[C@@H]2O)cc2c(c1OC)-c1ccc(SC)c(=O)cc1[C@@H](NC(C)=O)CC2")
5.23
>>> quantitative_readout("COc1c(O[C@@H]2O[C@H](CO)[C@@H](O)[C@H](O)[C@H]2O)cc2c(c1OC)-c1ccc(SC)c(=O)cc1[C@@H](NC(C)=O)CC2 [THIOCOLCHICOSIDE]")
5.72

Data credit: ChEMBL document CHEMBL1146873
